Value source: BindingDB's records for doi:10.1021/acs.jmedchem.9b01562

Assay Method Text: Inhibition of NS5A in HCV genotype 1b infected in human HuH7.5/Con1/SG-Neo(I)-hRluc2aUb cells assessed as inhibition of replicon levels incubated for 72 hrs by luciferase reporter gene assay
# Lookup of reported IC50 keyed by entry
Form entry: value (nM) — number only.

// solved cases for IC50 follow
>  <Chemical String>
COC(=O)N[C@H](C(=O)N1[C@H]2CC[C@H](C2)[C@H]1c1ncc(-c2ccc3c(ccc4cc(-c5cnc([C@@H]6[C@@H]7CC[C@@H](C7)N6C(=O)[C@@H](NC(=O)OC)C(C)C)[nH]5)sc43)c2)[nH]1)C(C)C

>  <IC50, nM>
0.021

$$$$
>  <Chemical String>
COC(=O)N[C@H](C(=O)N1CCC[C@H]1c1ncc(-c2ccc3c(c2)OCC(C)(C)COc2cc(-c4[nH]c([C@@H]5CCCN5C(=O)[C@@H](NC(=O)OC)C(C)C)nc4Cl)ccc2-3)[nH]1)C(C)C

>  <IC50, nM>
0.021

$$$$

Kindly consider the entry below.
Looking for the measured IC50 of COC(=O)N[C@H](C(=O)N1CCC[C@H]1c1ncc(-c2ccc3c(c2)OCCCOc2cc(-c4[nH]c([C@@H]5CCCN5C(=O)[C@@H](NC(=O)OC)C(C)C)nc4Cl)ccc2-3)[nH]1)C(C)C , can you help? 0.051
